Molecular target: MAP kinase-activated protein kinase 2 (Homo sapiens);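 note: figures are mean inhibition values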
Conditions: at 0.1 µM
For each record, write down the corresponding inhibition.
Write the number in % without appending the unit.

**Q:** Write down inhibition measured for item CS(=O)(=O)CCNCc1ccc(-c2ccc3ncnc(Nc4ccc(OCc5cccc(C(F)(F)F)c5)cc4)c3c2)o1
**A:** 3.06

**Q:** Give recorded inhibition. c1ccc(-c2n[nH]cc2-c2ccnc(-c3ccc(OCCn4ccnc4)cc3)c2)nc1
**A:** -2.58

**Q:** Note inhibition for the molecule shown: NS(=O)(=O)c1cccc(N/C=C2\C(=O)Nc3ccccc32)c1
**A:** 4.22

**Q:** Report measured inhibition; entry is N#Cc1ccc2c(-c3ccnc(NC4CC4)n3)c(-c3ccc(F)cc3)nn2c1
**A:** 0.5

**Q:** Return inhibition for the following molecule: COc1cc(N2CCN(C(C)C)CC2)ccc1Nc1nc(Nc2cccc(F)c2C(=O)O)c2cc[nH]c2n1
**A:** 2.14

**Q:** Respond only with inhibition recorded for COc1ccc(Nc2ncc(-c3ccccc3)o2)cc1OC
**A:** -0.12

**Q:** Give the measured inhibition for COc1cccc(Nc2nccc(-c3cnn4ncccc34)n2)c1
**A:** 1.39

**Q:** Return value of inhibition for input CC(C)c1ccc(-c2cc(-c3c[nH]nc3-c3ccccn3)ccn2)cc1 , no commentary.
**A:** 0.58

**Q:** // fetch inhibition given entry COc1ccccc1-c1cc(/C=C2\C(=O)Nc3ncc(Br)cc32)cc(Br)c1O
**A:** 1.81

**Q:** Determine its reported inhibition: COc1ccc(-c2nn3ncccc3c2-c2ccnc(Nc3ccc(F)c(F)c3)n2)cc1
**A:** 2.31

**Q:** Dear colleague, please send me the reported inhibition for CCCNc1cccc(-n2ncc3c(N/N=C/c4ccncc4)ncnc32)c1 when you can.
**A:** -2.72

**Q:** Fill in reported inhibition for this entry: O=C(O[C@H]1CN[C@H](C#Cc2cc3ncnc(Nc4ccc(OCc5cccc(F)c5)c(Cl)c4)c3s2)C1)N1CCOCC1
**A:** -0.11

**Q:** For the molecule NC(=O)c1ccc2c(-c3ccnc(NCCCO)n3)c(-c3ccc(F)cc3)nn2c1 , give its reported inhibition.
**A:** 5.03

**Q:** Kindly indicate its recorded inhibition. Item: CS(=O)(=O)Nc1ccc(-c2cc(-c3ccccc3)cc(C(N)=O)c2N)cc1
**A:** 1.59

**Q:** Give a short answer stating reported inhibition for O=C(O[C@H]1CN[C@H](C#Cc2cc3ncnc(Nc4ccc5c(cnn5Cc5ccccc5)c4)c3s2)C1)N1CCOCC1 .
**A:** -0.79

**Q:** Look up and state reported inhibition for COC(=O)Nc1nc2ccc(Oc3ccc(NC(=O)Nc4cc(C(F)(F)F)ccc4F)cc3)cc2s1
**A:** 0.26

**Q:** For the molecule Cc1cc(O)cc(C)c1/C=C/c1cncc(C(N)=O)c1 , give its measured inhibition value.
**A:** 1.06

**Q:** Give the value of inhibition reported for the following: CNC(=O)c1cncc(/C=C/c2ccccc2C)c1
**A:** 1.99

**Q:** Check the records and state inhibition for Fc1cccc(COc2ccc(Nc3ncncc3C#Cc3ccccc3)cc2Cl)c1
**A:** 2.63

**Q:** # return recorded inhibition for input CN(c1ccc(NC(=O)NCCN2CCOCC2)cc1)c1ccnc(Nc2ccc(CS(C)(=O)=O)cc2)n1
**A:** 1.97

**Q:** Give inhibition for COC(=O)Nc1nc2cc(Oc3ccc(NC(=O)Nc4ccccc4)cc3)ccc2[nH]1
**A:** 1.49

**Q:** Please report inhibition for the following molecule: O=C(O[C@H]1CN[C@H](C#Cc2cc3ncnc(Nc4ccc5c(ccn5Cc5cc(F)ccc5F)c4)c3s2)C1)N1CCOCC1
**A:** -0.3

**Q:** Hello, please tell me recorded inhibition for this one: CNC(=O)c1sc(-n2cnc3cc(OC)c(OC)cc32)cc1OCc1ccccc1C(F)(F)F
**A:** 1.17

**Q:** Return reported inhibition. Input molecule: NS(=O)(=O)c1ccc(N/N=C2\C(=O)Nc3cccc(CCc4ccncc4)c32)cc1
**A:** -0.02

**Q:** Input O=C(Nc1n[nH]c2nnc(-c3cccnc3)cc12)C1CC1 , output reported inhibition.
**A:** -0.72

**Q:** Give me measured inhibition, please, for this molecule: O=C1Nc2ccccc2/C1=C1\CCc2cc(O)ccc21
**A:** -0.94

**Q:** Query inhibition for COc1cc2c(cc1Nc1nc(Nc3cccc(F)c3C(N)=O)c3cc[nH]c3n1)N(C(=O)CN1CCN(C(C)C)CC1)CC2
**A:** 1.04

**Q:** Answer with the recorded inhibition for the molecule listed here: COc1c(C(N)=O)cc(-c2ccc(Cl)cc2)cc1-c1ccc(S(N)(=O)=O)cc1
**A:** 2.42
